assay details: Pharmacokinetic study in beagle dogs
experimental conditions: both, beagle, dog, plasma, po, 10 mg
reported property: half-life (min)

>>> print(df.to_string())
                                   compound  reported_property  units_symbol  obs_value
0  Cc1ccc(-c2nc3ccc(C)cn3c2CC(=O)N(C)C)cc1 [Zolpidem]          half-life           min       59.4

----------
assay details: Pharmacokinetic study in beagle dogs
experimental conditions: both, beagle, dog, plasma, inhaled or intranasal, 5 mg, Tmax, beagle dogs, intranasal administration (ZLP-B01), 5 mg/dog
reported property: Tmax (min)

>>> df
                              smiles_entry  units_symbol  obs_value
0  Cc1ccc(-c2nc3ccc(C)cn3c2CC(=O)N(C)C)cc1           min       12.6
